These data points were gathered from paper PMC12501005.

# study_system: T1, AflR 8-98 (Aspergillus flavus, UniProt P41765 8-98)
# T1 sequence: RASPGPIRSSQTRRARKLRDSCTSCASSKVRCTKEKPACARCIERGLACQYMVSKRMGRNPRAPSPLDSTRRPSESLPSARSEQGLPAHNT
# assay_protocol: FCS
measure: Kd (nM)

ver1 (dsDNA) DNA 1: TCAGATATTTCGGTCTCCGAGGAAAGAT DNA 2: ATCTTTCCTCGGAGACCGAAATATCTGA = 409
